biological target: hCA VI (Homo sapiens, UniProt P23280); construct: gene CA6; secreted isoform; in-house recombinant protein; construct not described here; experiment: stopped-flow CO2 hydrase assay; type: biochemical
Sequence (P23280 18-308): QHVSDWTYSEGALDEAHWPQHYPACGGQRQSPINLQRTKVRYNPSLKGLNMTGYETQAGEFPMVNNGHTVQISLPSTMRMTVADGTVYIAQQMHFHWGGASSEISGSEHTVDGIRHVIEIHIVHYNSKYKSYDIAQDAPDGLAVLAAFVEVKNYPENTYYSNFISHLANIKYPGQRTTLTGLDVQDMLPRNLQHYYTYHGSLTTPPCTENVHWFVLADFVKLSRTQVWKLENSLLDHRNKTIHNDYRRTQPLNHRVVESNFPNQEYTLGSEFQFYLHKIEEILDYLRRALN
Decision: Ki beneath 40 µM gives 1; Ki meeting or exceeding 40 µM gives 0.

> print(dat)
                                inputsmiles  assignedclass
1        O=C1CN(N2C(=O)c3ccccc3C2=O)C(=O)N1              1
2  O=C1CN(N2C(=O)c3ccccc3C2=O)C(=O)N1Cc1ccc([N+](=O)[O-])cc1              0
3  O=C1CN(N2C(=O)c3ccc([N+](=O)[O-])cc3C2=O)C(=O)N1Cc1ccc([N+](=O)[O-])cc1              0
4  O=C1CN(N2C(=O)c3ccccc3C2=O)C(=O)N1Cc1ccccc1              0
5  O=C1CN(N2C(=O)c3ccc([N+](=O)[O-])cc3C2=O)C(=O)N1              1
6  N#Cc1ccc(CN2C(=O)CN(N3C(=O)c4ccccc4C3=O)C2=O)cc1              0
7  O=C1CN(NC(=O)c2cc([N+](=O)[O-])ccc2C(=O)O)C(=O)N1              1
8  N#Cc1ccc(CN2C(=O)CN(N3C(=O)c4ccc([N+](=O)[O-])cc4C3=O)C2=O)cc1              0
